test: Therapeutic index, ratio of IC50 for human MCF10A cells to IC50 for human MCF7 cells expressing wild type p53 and ras mutant; format: cell-based; conditions: MCF10A cells versus MCF7 cells (wild type p53, ras mutant), read-out: Ratio IC50
Assign labels as follows, please: Fulfilled for selectivity ratio below 2; Not fulfilled for selectivity ratio equal to or exceeding 2.

Look over these answered cases.
O=S(=O)(c1ccccc1NO)N1CC(n2cnc3c(Cl)nc(Cl)nc32)OCc2ccccc21 (racemic) ... Fulfilled
O=[N+]([O-])c1ccc(S(=O)(=O)N2CC(n3cnc4c(Cl)nc(Cl)nc43)OCc3ccccc32)cc1 (racemic) ... Not fulfilled
O=[N+]([O-])c1ccccc1S(=O)(=O)N1CC(n2cnc3c(Cl)nc(Cl)nc32)OCc2ccccc21 (racemic) ... Not fulfilled
O=[N+]([O-])c1ccccc1S(=O)(=O)N1CC(n2cnc3c(I)nc(Cl)nc32)OCc2ccccc21 (racemic) ... Fulfilled
COC(CN(c1ccccc1CO)S(=O)(=O)c1ccc([N+](=O)[O-])cc1)n1cnc2c(Cl)nc(Cl)nc21 (racemic) ... Not fulfilled
O=[N+]([O-])c1ccccc1S(=O)(=O)N1CC(n2cnc3nc(Cl)nc(Cl)c32)OCc2ccccc21 (racemic) ... Fulfilled

stdin: For Nc1ccccc1S(=O)(=O)N1CC(n2cnc3c(Cl)nc(Cl)nc32)OCc2ccccc21 (racemic) , is the recorded selectivity ratio below the cut-off of 2?
stdout: Fulfilled

----------
test: Cell cycle arrest in human MCF10A cells assessed as accumulation at G2/M phase after 48 hrs using propidium iodide staining by flow cytometry (reference value: 12.55 +/- 0.68 %); type: ADME, cell-based; details: mcf-10a
Assign labels as follows, please: YES for Activity below 10%; NO for Activity equal to or exceeding 10%.

Look over these answered cases.
O=c1[nH]cc(F)c(=O)[nH]1 [FLUOROURACIL] ... YES
O=[N+]([O-])c1ccc(S(=O)(=O)N2C[C@@H](n3cnc4c(Cl)nc(Cl)nc43)OCc3ccccc32)cc1 ... NO
O=[N+]([O-])c1ccc(S(=O)(=O)N2C[C@H](n3cnc4c(Cl)nc(Cl)nc43)OCc3ccccc32)cc1 ... NO
O=[N+]([O-])c1ccccc1S(=O)(=O)N1CC(n2cnc3c(I)nc(Cl)nc32)OCc2ccccc21 (racemic) ... NO
CC(=O)O[C@H]1C(=O)[C@@]2(C)[C@H]([C@H](OC(=O)c3ccccc3)[C@]3(O)C[C@H](OC(=O)[C@H](O)[C@@H](NC(=O)c4ccccc4)c4ccccc4)C(C)=C1C3(C)C)[C@]1(OC(C)=O)CO[C@@H]1C[C@@H]2O [PACLITAXEL] ... NO

Would you kindly look at the next entry?
stdin: For O=[N+]([O-])c1ccc(S(=O)(=O)N2CC(n3cnc4c(Cl)nc(Cl)nc43)OCc3ccccc32)cc1 (racemic) , is the recorded Activity below the cut-off of 10%?
stdout: NO

----------
test system: MCF7; assay: Induction of apoptosis in human MCF7 cells assessed as necrotic cells at IC50 concentration after 48 hrs using V-FITC and propidium iodide staining by flow cytometry (reference value: 12.61 +/- 7.50 %); format: functional
EXPERIMENTAL_ENDPOINT: Activity (%)
All answers are understood in %, so give the number only.

O=[N+]([O-])c1ccc(S(=O)(=O)N2C[C@@H](n3cnc4c(Cl)nc(Cl)nc43)OCc3ccccc32)cc1 ... 1.84

stdin: State the recorded Activity for this entry: COC(CN(c1ccccc1CO)S(=O)(=O)c1ccc([N+](=O)[O-])cc1)n1cnc2c(Cl)nc(Cl)nc21 (racemic)
stdout: 4.81

stdin: State the recorded Activity for this entry: O=[N+]([O-])c1ccccc1S(=O)(=O)N1CC(n2cnc3c(Cl)nc(Cl)nc32)OCc2ccccc21 (racemic)
stdout: 3.43

stdin: State the recorded Activity for this entry: O=S(=O)(c1ccccc1NO)N1CC(n2cnc3c(Cl)nc(Cl)nc32)OCc2ccccc21 (racemic)
stdout: 5.52

stdin: State the recorded Activity for this entry: O=[N+]([O-])c1ccccc1S(=O)(=O)N1CC(n2cnc3c(I)nc(Cl)nc32)OCc2ccccc21 (racemic)
stdout: 8.08
